# Tgt: T1, recombinant rat MASP1 active protease (amino acids 302-704, C-terminal His Tag) (rat, UniProt Q8CHN8 302-704)
# T1 sequence: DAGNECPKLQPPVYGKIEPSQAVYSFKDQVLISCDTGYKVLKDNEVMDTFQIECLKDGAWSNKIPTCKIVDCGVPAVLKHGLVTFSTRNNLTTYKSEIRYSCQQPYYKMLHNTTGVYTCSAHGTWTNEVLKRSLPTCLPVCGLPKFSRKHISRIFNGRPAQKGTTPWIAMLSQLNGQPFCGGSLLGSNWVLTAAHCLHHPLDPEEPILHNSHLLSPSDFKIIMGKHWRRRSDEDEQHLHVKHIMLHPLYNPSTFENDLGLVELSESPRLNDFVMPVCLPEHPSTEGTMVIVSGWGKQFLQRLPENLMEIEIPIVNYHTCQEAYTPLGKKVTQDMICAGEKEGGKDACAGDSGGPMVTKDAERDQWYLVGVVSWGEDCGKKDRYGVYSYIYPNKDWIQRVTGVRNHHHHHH
# Assay explanation: cell-based or functional assay
Bridge positions count the residues as written; N and C are the ends. Square brackets hold non-standard residues; d marks the D form. Ends that are not written are not given here. tBuAla = CC(C)(C)C[C@H](N)C(=O)O; NMeA = CN[C@@H](C)C(=O)O
Readout type: rat MASP1 IC50 (nM)
// return numeric value only (unit: nM, not printed)

Any idea what its rat MASP1 IC50 is? The binder is [NMeA]ICSRS[tBuAla]PPICIPD-NH2 (disulfide 3-11; N-terminus assumed; SMILES CC[C@H](C)[C@H](NC(=O)[C@H](C)NC)C(=O)N[C@H]1CSSC[C@@H](C(=O)N[C@H](C(=O)N2CCC[C@H]2C(=O)N[C@@H](CC(=O)O)C(N)=O)[C@@H](C)CC)NC(=O)[C@H]([C@@H](C)CC)NC(=O)[C@@H]2CCCN2C(=O)[C@@H]2CCCN2C(=O)[C@H](CC(C)(C)C)NC(=O)[C@H](CO)NC(=O)[C@H](CCCNC(=N)N)NC(=O)[C@H](CO)NC1=O) [Example 253: ((N-Me)A)-IC+SRS-((tBu)A)-PPIC+IPD-NH2] 130
